# Experimental Target: T1, P6-AA-12HAA-K
# T1 chain: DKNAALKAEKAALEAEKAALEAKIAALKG
# Experiment Summary: two-hybrid library CCmax;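 note: natural log of median RNA to DNA barcode read ratio; higher means stronger binding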
# Conditions: mean of both orientations
Measured Endpoint: interaction score
Give bare numbers.

Below: 5 binders and their reported interaction score.
| Binder | Measured Endpoint | Endpoint Result |
| --- | --- | --- |
| DENAALEAKDAALKAKDAALKAEIAALEG [P5-AA-12HAA-D] | interaction score | -1.61 |
| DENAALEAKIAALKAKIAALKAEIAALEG [4H1385-AA] | interaction score | 2.03 |
| DENAALEAKEAALKAKEAALKAEIAALEG [P5-AA-12HAA-E] | interaction score | -2.37 |
| DENAALEAKLAALKAKLAALKAEIAALEG [P5-AA-12HAA-L] | interaction score | 0.645 |
| DENAALEAKRAALKAKRAALKAEIAALEG [P5-AA-12HAA-R] | interaction score | -1.69 |

// each listed binder needs a value for interaction score
1. DENAALEAKHAALKAKHAALKAEIAALEG [P5-AA-12HAA-H]
2. DENAALEAKTAALKAKTAALKAEIAALEG [P5-AA-12HAA-T]
3. DENAALEAKVAALKAKVAALKAEIAALEG [P5-AA-12HAA-V]
4. DENAALEAKSAALKAKSAALKAEIAALEG [P5-AA-12HAA-S]
5. DENAALEAKKAALKAKKAALKAEIAALEG [P5-AA-12HAA-K]
6. DENAALEAKYAALKAKYAALKAEIAALEG [P5-AA-12HAA-Y]

(A)
1: -1.6; 2: -1.33; 3: 1.73; 4: -1.73; 5: -1.5; 6: -1.55

(Q) Request the reported interaction score associated with DENAALEAKNAALKAKNAALKAEIAALEG [P5-AA-1HAA-N]
(A) -0.291
